Test system: Plasmodium falciparum
protocol.text: Antimalarial activity against Plasmodium falciparum 3D7 infected in O-positive human erythrocytes assessed as inhibition of parasite lactate dehydrogenase after 72 hrs by pLDH method
Format: functional, organism-based
condition: 3D7, 72 h
measurement.type: IC50 (µM)

INSERT INTO measurements (compound, measured_number) VALUES
  ('CCOP(=S)(NC1CCCC1)Oc1ccc(Br)cc1 (stereo unspecified)', 23),
  ('CCCCCNP(=O)(OCC)Oc1ccc(C)cc1[N+](=O)[O-] (stereo unspecified)', 51),
  ('CCOP(=S)(NC1CCCC1)Oc1ccc(C(F)(F)F)cc1 (stereo unspecified)', 8.6),
  ('CCOP(NC1CCCC1)Oc1ccc(Br)cc1 (stereo unspecified)', 128),
  ('CCOP(=O)(NC(C)C)Oc1ccc(C)cc1C#N (stereo unspecified)', 128),
  ('CCOP(=O)(NC(C)C)Oc1cc([N+](=O)[O-])ccc1C (stereo unspecified)', 128);
